So I've got a bunch of compounds here, and I need their PP3 remaining activity, percent of control values.
- Test system: PP3
- Assay: Phosphatase activity by [32P] release from phosphorylase-a or phosphohistone (Honkanen method)
- Assay type: biochemical
- Condition Details: 100 μM inhibitor; none = 100

# example entries with known answers
1) Cc1oc(-c2ccccc2)nc1C(=O)NCCN(C)C(=O)CCC(NC(=O)C=Cc1ccccc1)C(=O)O (centres unmarked)	60%
2) CCCCCCN(CCNC(=O)c1nc(-c2ccccc2)oc1-c1ccccc1)C(=O)CCC(NC(=O)CCc1ccccc1)C(=O)O (centres unmarked)	24%
3) CCCCCCCCCC(=O)NC(CCC(=O)N(C)CCNC(=O)c1nc(-c2ccccc2)oc1C)C(=O)O (centres unmarked)	76%
4) Cc1oc(-c2ccccc2)nc1C(=O)NCCN(C)C(=O)CCC(NC(=O)CCc1ccccc1)C(=O)O (centres unmarked)	21%
5) CCCCCCN(CCNC(=O)c1nc(-c2ccccc2)oc1C)C(=O)CCC(NC(=O)C=Cc1ccccc1)C(=O)O (centres unmarked)	26%

Batch of 8 compounds: report PP3 remaining activity, percent of control for each.
1. CCCCCCN(CCNC(=O)c1nc(-c2ccccc2)oc1C)C(=O)CCC(NC(=O)CCc1ccccc1)C(=O)O (centres unmarked)
2. CN(CCNC(=O)c1nc(-c2ccccc2)oc1-c1ccccc1)C(=O)CCC(NC(=O)CCc1ccccc1)C(=O)O (centres unmarked)
3. Cc1oc(-c2ccccc2)nc1C(=O)NCCN(Cc1ccccc1)C(=O)CCC(NC(=O)C=Cc1ccccc1)C(=O)O (centres unmarked)
4. CCCCCCN(CCNC(=O)c1nc(-c2ccccc2)oc1-c1ccccc1)C(=O)CCC(NC(=O)C=Cc1ccccc1)C(=O)O (centres unmarked)
5. CCCCCCCCCC(=O)NC(CCC(=O)N(C)CCNC(=O)c1nc(-c2ccccc2)oc1-c1ccccc1)C(=O)O (centres unmarked)
6. CCCCCCCCCC(=O)NC(CCC(=O)N(CCNC(=O)c1nc(-c2ccccc2)oc1C)Cc1ccccc1)C(=O)O (centres unmarked)
7. O=C(CCc1ccccc1)NC(CCC(=O)N(CCNC(=O)c1nc(-c2ccccc2)oc1-c1ccccc1)Cc1ccccc1)C(=O)O (centres unmarked)
8. Cc1oc(-c2ccccc2)nc1C(=O)NCCN(Cc1ccccc1)C(=O)CCC(NC(=O)CCc1ccccc1)C(=O)O (centres unmarked)

Key:
1. 17%
2. 38%
3. 13%
4. 28%
5. 33%
6. 28%
7. 22%
8. 14%

Exercise: Quick one: PP3 remaining activity, percent of control of CCCCCCCCCC(=O)NC(CCC(=O)N(CCCCCC)CCNC(=O)c1nc(-c2ccccc2)oc1-c1ccccc1)C(=O)O (centres unmarked) ?
Key: 71%

Source: patent US5856506A
